Origin of values: the RNAGym collection of RNA variant scans (doi:10.7554/elife.80360)

Listing: self-cleavage of selected variants
B1: HDV Ribozyme (parent)
chain: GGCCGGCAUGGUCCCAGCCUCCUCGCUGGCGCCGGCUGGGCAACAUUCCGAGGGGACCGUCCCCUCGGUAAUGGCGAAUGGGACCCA

- Variants of: B1
- Experiment: self-cleavage, relative activity (ratio to wild type); higher = more cleavage; co-transcriptional
Metric name: self-cleavage

INSERT INTO results (var, observed) VALUES
  ('C58A A83G', 0.707),
  ('C13U C62U', 0.589),
  ('G6U G76A', 0.708),
  ('C15G C58U', 0.482),
  ('A51U A77C', 0.453),
  ('U20C C61A', 0.166),
  ('G17A U65A', 0.752),
  ('C4G G82U', 0.0421),
  ('U23C C57U', 0.743),
  ('C13A U72C', 0.0573),
  ('U46A C64G', 0.38),
  ('G1A A56U', 0.217),
  ('C13A C86A', 0.492),
  ('C19G G29C', 0.201),
  ('U12G C32G', 0.0755),
  ('G39C U46A', 0.19),
  ('U9A A42C', 0.252),
  ('G29U U46C', 0),
  ('G25A G73U', 0.0702),
  ('A16C U20A', 0),
  ('C7A G38A', 0.0639),
  ('C13U C36U', 0.256),
  ('G10C A78G', 0.399),
  ('G81U A87G', 0.291),
  ('U37C U46G', 0.787),
  ('C21G A51G', 0.131),
  ('U37C G59U', 1.25),
  ('C62U G76U', 1.06),
  ('G6U G82C', 0.17),
  ('A70G A78G', 0.655),
  ('C44U G52A', 0.831),
  ('C19A A42U', 0.0216),
  ('C7G A51C', 0.437),
  ('A45U C58U', 0.849),
  ('A71U G74C', 0.244),
  ('G2C G54A', 0.0777),
  ('C14G G50U', 0.639),
  ('C24U C30G', 0.122),
  ('C61G C63U', 1.02),
  ('C64G A83G', 0.708),
  ('A56C G67U', 0.814),
  ('C75G', 0.159),
  ('C19A U60A', 0.141),
  ('G40U G76U', 0.795),
  ('C3G C49U', 0.673),
  ('C18G A78U', 0.0723);
